- Assayed target: T1, Ebola virus GP with a C-terminal polyhistidine tag (Sino Biologicals, Catalog #40442-V08B1) (Ebola virus, UniProt P87666 33-650)
- T1 construct: also called EbolaGP.his; Ebola virus GP.his
- Measurement protocol: SPR 37C, mAb captured
Parameter: Kd (µM)
Give bare numbers, in µM.

INSERT INTO assay_data (binder, reported_value) VALUES
  ('H1H17151P (antibody, V domains shown) VH: EVQLVESGGGLVQPGGSLRLSCAASGFTFSSYAMNWVRQAPGKGLEWVSVISGSGGWRNYADSVKGRITISRDNSKNTLYLQMNNLRAEDTAVYYCAKDRGATFGVVILGPPYYGMDVWGQGTTVTVSS VL: DIQMTQSPSSLSASVRDRVTITCRASQSISTYLNWYQQKPGKAPKLLIYAASSLQSGVPSRFSGSGSGTGFTLTISSLQPEDFATYYCQQSYSIPYTFGQGTKLEIK', 0.017),
  ('H1H17162P (antibody, V domains shown) VH: EVQLVESGGGLVQPGGSLRLSCAASEFTFSSYAMSWVRQAPGKGLEWVSAISGSSGSTYYADSVKGRFTISRDNSKKTLYLQMNSLRVEDTAVYYCAKGGYPHSFDIWGHGTMVTVSS VL: DIQMTQSPSSLSASVGDRVTITCRASQSISSFLNWYQQKPGKAPKLLIYAASSLQSGVPSRFSGSGSGTDFTLTISSLQPEDFATYYCQQSYSSITFGQGTRLEIK', 0.000288);

Now for a further binder.
Give its Kd value. Item: H1M17357N (antibody, V domains shown, also called HCAF09D11-13) VH: QVQLVQSGAEVKKPGASVKVSCKASGYTFTSYYMHWVRQAPGQGLEWMGIINPSGGSTSYAQKFQGRVTMTRDTSTSTVYMELSSLRSEDTAVYYCAREIGEAGEVFNYWGQGTLVTVSS VL: DIQMTQSPSSLSASVGDRVTITCRASQSISRYLNWYQHKPGKAPKVLIYAASILQSGVPSRFSGSGSGTDFTLTISSLQPEDFATYYCQQSYSTPPITFGQGTRLEIK 0.0781
